B1: library; a variant is named by its letters at N, in order (parent)
chain: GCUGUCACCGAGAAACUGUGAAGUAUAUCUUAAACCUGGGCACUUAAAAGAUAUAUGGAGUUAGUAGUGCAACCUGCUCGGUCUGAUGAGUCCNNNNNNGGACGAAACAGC

Variants of: B1
testName: FACS-Seq fitted mean relative fluorescence mCherry/BFP without ligand (log10 relative fluorescence); HEK293T; ligand: cyclic di-GMP (c-di-GMP-II aptamer); higher = higher reporter protein expression
conditionSummary: ligand present: no
valueKind: FACS-Seq fitted mean (log10)
Answer field: number only, no words.

GCUGUCACCGAGAAACUGUGAAGUAUAUCUUAAACCUGGGCACUUAAAAGAUAUAUGGAGUUAGUAGUGCAACCUGCUCGGUCUGAUGAGUCCGUUCGAGGACGAAACAGC = -0.345
GCUGUCACCGAGAAACUGUGAAGUAUAUCUUAAACCUGGGCACUUAAAAGAUAUAUGGAGUUAGUAGUGCAACCUGCUCGGUCUGAUGAGUCCCGGCAAGGACGAAACAGC = -0.818
GCUGUCACCGAGAAACUGUGAAGUAUAUCUUAAACCUGGGCACUUAAAAGAUAUAUGGAGUUAGUAGUGCAACCUGCUCGGUCUGAUGAGUCCAUGCCAGGACGAAACAGC = -0.283
GCUGUCACCGAGAAACUGUGAAGUAUAUCUUAAACCUGGGCACUUAAAAGAUAUAUGGAGUUAGUAGUGCAACCUGCUCGGUCUGAUGAGUCCUACGAAGGACGAAACAGC = -0.516

Specify measured FACS-Seq fitted mean (log10) for GCUGUCACCGAGAAACUGUGAAGUAUAUCUUAAACCUGGGCACUUAAAAGAUAUAUGGAGUUAGUAGUGCAACCUGCUCGGUCUGAUGAGUCCGCGCUCGGACGAAACAGC .
0.151

Specify measured FACS-Seq fitted mean (log10) for GCUGUCACCGAGAAACUGUGAAGUAUAUCUUAAACCUGGGCACUUAAAAGAUAUAUGGAGUUAGUAGUGCAACCUGCUCGGUCUGAUGAGUCCUGCAUCGGACGAAACAGC .
-1.13

Specify measured FACS-Seq fitted mean (log10) for GCUGUCACCGAGAAACUGUGAAGUAUAUCUUAAACCUGGGCACUUAAAAGAUAUAUGGAGUUAGUAGUGCAACCUGCUCGGUCUGAUGAGUCCCAAUCCGGACGAAACAGC .
-0.487

Specify measured FACS-Seq fitted mean (log10) for GCUGUCACCGAGAAACUGUGAAGUAUAUCUUAAACCUGGGCACUUAAAAGAUAUAUGGAGUUAGUAGUGCAACCUGCUCGGUCUGAUGAGUCCUCUGAAGGACGAAACAGC .
-0.341

Specify measured FACS-Seq fitted mean (log10) for GCUGUCACCGAGAAACUGUGAAGUAUAUCUUAAACCUGGGCACUUAAAAGAUAUAUGGAGUUAGUAGUGCAACCUGCUCGGUCUGAUGAGUCCCCGAGAGGACGAAACAGC .
-0.211
